Tested on: human DHFR versus Leishmania major DHFR
test.summary: Selectivity index, ratio of IC50 for human DHFR to IC50 for Leishmania major DHFR
Type: toxicity
condition: read-out: Ratio IC50
reported.metric: selectivity ratio
// no unit string in output, number only

Known results for compounds:
Value wanted: selectivity ratio (human DHFR versus Leishmania major DHFR) of entry `C#CCN(Cc1cnc2nc(N)nc(N)c2n1)c1ccc(C(=O)N2CCC(C(=O)OC)CC2)cc1`
110

Value wanted: selectivity ratio (human DHFR versus Leishmania major DHFR) of entry CCOC(=O)C1CCCN1C(=O)c1ccc(NCc2cnc3nc(N)nc(N)c3n2)cc1 (stereo not given)
8

Value wanted: selectivity ratio (human DHFR versus Leishmania major DHFR) of entry `COc1cc(Oc2ccc(CNCc3cnc4nc(N)nc(N)c4n3)cc2)cc(OC)c1OC`
1

Value wanted: selectivity ratio (human DHFR versus Leishmania major DHFR) of entry `COc1ccc(Oc2ccc(CNCc3cnc4nc(N)nc(N)c4n3)cc2)cc1`
1

More entries:
Value wanted: selectivity ratio (human DHFR versus Leishmania major DHFR) of entry `COC(=O)C1CCN(C(=O)c2ccc(N(Cc3ccccc3)Cc3cnc4nc(N)nc(N)c4n3)cc2)CC1`
80

Value wanted: selectivity ratio (human DHFR versus Leishmania major DHFR) of entry `CCCOC(=O)C1CCN(C(=O)c2ccc(N(C)Cc3cnc4nc(N)nc(N)c4n3)cc2)CC1`
59

Value wanted: selectivity ratio (human DHFR versus Leishmania major DHFR) of entry `Nc1nc(N)c2nc(C(=O)NCc3ccccc3)cnc2n1`
1

Value wanted: selectivity ratio (human DHFR versus Leishmania major DHFR) of entry `Nc1nc(N)c2nc(CNc3ccc(C(=O)NCCc4ccccc4)cc3)cnc2n1`
56

Value wanted: selectivity ratio (human DHFR versus Leishmania major DHFR) of entry `COC(=O)C1CCN(C(=O)c2cccc(NCc3cnc4nc(N)nc(N)c4n3)c2)CC1`
2

Value wanted: selectivity ratio (human DHFR versus Leishmania major DHFR) of entry `Nc1nc(N)c2nc(CNc3ccc(C(=O)c4ccccc4)cc3)cnc2n1`
2

* * *

target.or.system: Dihydrofolate reductase (Homo sapiens, UniProt P00374)
Sequence (P00374 whole entry): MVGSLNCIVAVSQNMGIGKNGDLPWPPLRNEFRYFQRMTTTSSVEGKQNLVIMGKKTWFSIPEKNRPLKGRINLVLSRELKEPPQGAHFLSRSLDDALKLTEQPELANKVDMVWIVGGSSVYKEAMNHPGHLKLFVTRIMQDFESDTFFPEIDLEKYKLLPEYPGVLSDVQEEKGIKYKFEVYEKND
test.summary: Inhibition of recombinant human DHFR expressed in Escherichia coli BL21 (DE3) cells using dihydrofolate as substrate in presence of NADPH by spectrophotometric analysis
Here, each record is paired with measured IC50 data.
# output: numeric value plus its unit

Known results for molecules:
Need IC50 of `CCOC(=O)C1CCN(C(=O)c2ccc(N(C)Cc3cnc4nc(N)nc(N)c4n3)cc2)CC1` , thanks.
12 µM

Need IC50 of `C#CCN(Cc1cnc2nc(N)nc(N)c2n1)c1ccc(C(=O)N2CCC(C(=O)OC)CC2)cc1` , thanks.
78 µM

Need IC50 of `CCCOC(=O)C1CCN(C(=O)c2ccc(N(C)Cc3cnc4nc(N)nc(N)c4n3)cc2)CC1` , thanks.
9 µM

Need IC50 of `CCOC(=O)C1CCN(C(=O)c2ccc(N(CC)Cc3cnc4nc(N)nc(N)c4n3)cc2)CC1` , thanks.
13 µM

Need IC50 of `COC(=O)C1CCN(C(=O)Cc2ccc(NCc3cnc4nc(N)nc(N)c4n3)cc2)CC1` , thanks.
35 µM

More entries:
Need IC50 of `Nc1nc(N)c2nc(CNc3cccc4ccccc34)cnc2n1` , thanks.
4.4 µM

Need IC50 of `COC(=O)C1CCN(C(=O)c2ccc(N(C)Cc3cnc4nc(N)nc(N)c4n3)cc2)CC1` , thanks.
44 µM

Need IC50 of `Nc1nc(N)c2nc(CNc3ccc(C(=O)c4ccccc4)cc3)cnc2n1` , thanks.
6.02 µM

Need IC50 of `COC(=O)C1CCN(C(=O)c2ccc(NCc3cnc4nc(N)nc(N)c4n3)cc2)CC1` , thanks.
51 µM

* * *

Tested on: human DHFR versus Leishmania major DHFR
test.summary: Selectivity index, ratio of IC50 for human DHFR to IC50 for Leishmania major DHFR
Type: toxicity
condition: read-out: Ratio IC50
Here, each record is paired with measured selectivity ratio data.

Known results for compounds:
Need selectivity ratio of `COC(=O)C1CCN(C(=O)Cc2ccc(NCc3cnc4nc(N)nc(N)c4n3)cc2)CC1` , thanks.
41

Need selectivity ratio of `CCN(Cc1cnc2nc(N)nc(N)c2n1)c1ccc(C(=O)N2CCC(C(=O)OC)CC2)cc1` , thanks.
9

Need selectivity ratio of `CN(Cc1cnc2nc(N)nc(N)c2n1)c1ccc(C(=O)N2CCCCC2)cc1` , thanks.
15

Need selectivity ratio of `CCOC(=O)C1CCN(C(=O)c2ccc(N(C)Cc3cnc4nc(N)nc(N)c4n3)cc2)CC1` , thanks.
90

More entries:
Need selectivity ratio of `COc1ccc(CNC(=O)c2ccc(CNCc3cnc4nc(N)nc(N)c4n3)cc2)cc1OC` , thanks.
1

Need selectivity ratio of `Nc1nc(N)c2nc(CNc3cccc4ccccc34)cnc2n1` , thanks.
3

* * *

System: human DHFR versus Leishmania major PTR1
test.summary: Selectivity index, ratio of IC50 for human DHFR to IC50 for Leishmania major PTR1
Format: toxicity
condition: read-out: Ratio IC50
Classify on selectivity ratio using LOW = under 60, MID = from 60 up to 600, HIGH = 600 and over

These solved cases illustrate the format of a correct answer.
Input `CCCOC(=O)C1CCN(C(=O)c2ccc(N(C)Cc3cnc4nc(N)nc(N)c4n3)cc2)CC1` ; output its category
LOW

Input `Nc1nc(N)c2nc(C(=O)NCc3cccc(C(F)(F)F)c3)cnc2n1` ; output its category
MID

Input `COc1ccc(CNC(=O)c2ccc(CNCc3cnc4nc(N)nc(N)c4n3)cc2)cc1OC` ; output its category
MID

Input `Nc1nc(N)c2nc(CNc3ccc(C(=O)NCCc4ccccc4)cc3)cnc2n1` ; output its category
HIGH

Input `CCOC(=O)C1CCN(C(=O)c2ccc(N(C)Cc3cnc4nc(N)nc(N)c4n3)cc2)CC1` ; output its category
LOW

Input `COc1ccc(Oc2ccc(CNCc3cnc4nc(N)nc(N)c4n3)cc2)cc1` ; output its category
MID

More entries:
Input `C#CCN(Cc1cnc2nc(N)nc(N)c2n1)c1ccc(C(=O)N2CCC(C(=O)OC)CC2)cc1` ; output its category
MID

Input `COC(=O)C1CCN(C(=O)c2ccc(SCc3cnc4nc(N)nc(N)c4n3)nc2)CC1` ; output its category
HIGH

* * *

Tested on: human DHFR versus Leishmania major DHFR
test.summary: Selectivity index, ratio of IC50 for human DHFR to IC50 for Leishmania major DHFR
Format: toxicity
condition: read-out: Ratio IC50
Here, each record is paired with measured selectivity ratio data.
// no unit string in output, number only

Need selectivity ratio of `COc1ccc(CNC(=O)c2ccc(CNCc3cnc4nc(N)nc(N)c4n3)cc2)cc1` , thanks.
1

Need selectivity ratio of `Nc1nc(N)c2nc(C(=O)NCc3cccc(C(F)(F)F)c3)cnc2n1` , thanks.
1

Need selectivity ratio of `COC(=O)C1CCN(C(=O)c2ccc(N(CCCO)Cc3cnc4nc(N)nc(N)c4n3)cc2)CC1` , thanks.
20

More entries:
Need selectivity ratio of `Nc1nc(N)c2nc(CNCc3ccc(Oc4ccccc4)cc3)cnc2n1` , thanks.
1

Need selectivity ratio of `COC(=O)C1CCN(C(=O)c2ccc(SCc3cnc4nc(N)nc(N)c4n3)nc2)CC1` , thanks.
10

* * *

Here, each record is paired with measured Activity data.
Tested on: A549
test.summary: Cytotoxicity against human A549 cells at 10 uM measured after 48 hrs by Celltiter-Glo assay relative to control
Assay type: toxicity, cell-based
condition: a549, 48 h
The figure you give is taken to be in %; do not add the unit.

Need Activity of `Nc1nc(N)c2nc(CNc3cccc4ccccc34)cnc2n1` , thanks.
0

Need Activity of `COc1ccc(Oc2ccc(CN(C)Cc3cnc4nc(N)nc(N)c4n3)cc2)cc1` , thanks.
15

Need Activity of `COC(=O)C1CCN(C(=O)c2ccc(N(Cc3ccccc3)Cc3cnc4nc(N)nc(N)c4n3)cc2)CC1` , thanks.
100

Need Activity of `Nc1nc(N)c2nc(C(=O)NCc3cccc(C(F)(F)F)c3)cnc2n1` , thanks.
100

Need Activity of `NC(=O)C1CCN(C(=O)c2ccc(NCc3cnc4nc(N)nc(N)c4n3)cc2)CC1` , thanks.
0

Now look at this one.
Need Activity of `COc1cc(Oc2ccc(CNCc3cnc4nc(N)nc(N)c4n3)cc2)cc(OC)c1OC` , thanks.
100

* * *

Here, each record is paired with measured selectivity ratio data.
Test system: human DHFR versus Trypanosoma brucei PTR1
test.summary: Selectivity index, ratio of IC50 for human DHFR to IC50 for Trypanosoma brucei PTR1
Assay type: toxicity
condition: read-out: Ratio IC50
// no unit string in output, number only

Need selectivity ratio of `COC(=O)C1CCN(C(=O)Cc2ccc(NCc3cnc4nc(N)nc(N)c4n3)cc2)CC1` , thanks.
250

Need selectivity ratio of `Nc1nc(N)c2nc(C(=O)NCc3cccc(C(F)(F)F)c3)cnc2n1` , thanks.
10000

Need selectivity ratio of `Nc1nc(N)c2nc(CNCc3ccc(Oc4ccccc4)cc3)cnc2n1` , thanks.
526

Need selectivity ratio of `Nc1nc(N)c2nc(C(=O)NCc3ccccc3)cnc2n1` , thanks.
10000

Need selectivity ratio of `COC(=O)C1CCN(C(=O)c2ccc(SCc3cnc4nc(N)nc(N)c4n3)nc2)CC1` , thanks.
89000

Need selectivity ratio of `COc1cc(Oc2ccc(CNCc3cnc4nc(N)nc(N)c4n3)cc2)cc(OC)c1OC` , thanks.
286

Need selectivity ratio of `CCN(Cc1cnc2nc(N)nc(N)c2n1)c1ccc(C(=O)N2CCC(C(=O)OC)CC2)cc1` , thanks.
48

Need selectivity ratio of `COC(=O)C1CCN(C(=O)c2ccc(N(CCCO)Cc3cnc4nc(N)nc(N)c4n3)cc2)CC1` , thanks.
500

More entries:
Need selectivity ratio of `CCCOC(=O)C1CCN(C(=O)c2ccc(N(C)Cc3cnc4nc(N)nc(N)c4n3)cc2)CC1` , thanks.
300

Need selectivity ratio of `CCOC(=O)C1CCN(C(=O)c2ccc(N(C)Cc3cnc4nc(N)nc(N)c4n3)cc2)CC1` , thanks.
300

Need selectivity ratio of `Nc1nc(N)c2nc(CNc3cccc4ccccc34)cnc2n1` , thanks.
440

Need selectivity ratio of `COC(=O)C1CCN(C(=O)c2cccc(NCc3cnc4nc(N)nc(N)c4n3)c2)CC1` , thanks.
393

Need selectivity ratio of CCOC(=O)C1CCCN1C(=O)c1ccc(NCc2cnc3nc(N)nc(N)c3n2)cc1 (stereo unspecified) , thanks.
0.08

Need selectivity ratio of `COc1ccc(CNC(=O)c2ccc(CNCc3cnc4nc(N)nc(N)c4n3)cc2)cc1` , thanks.
769

Need selectivity ratio of `COc1ccc(CNC(=O)c2ccc(CNCc3cnc4nc(N)nc(N)c4n3)cc2)cc1OC` , thanks.
455

These entries and their values trace back to ChEMBL document CHEMBL5143713.
